Experiment: solvent given as SMILES
Settings: in CC#N
The following molecules are shown together with reported emission maximum values.
Please give the number followed by its unit.

Example entries begin here.
c1cc2ccc1CCCc1cc3c(cc1CCCc1ccc(c4nsnc14)CCC3)CCC2; 534 nm
c1ccc(-c2cc(-c3ccccc3)[o+]c(-c3ccccc3)c2)cc1; 465 nm
CN(C)CCCN1c2ccccc2Sc2ccc(Cl)cc21; 451 nm

Here is another molecule to look at.
Reported emission maximum of CCOC(=O)CN1C(=O)C2=C(c3ccc(N4CCCCC4)cc3)N(CC(=O)OCC)C(=O)C2=C1c1ccccc1 : 587 nm

----------
The following compounds are shown together with reported emission maximum values.
Experiment: solvent given as SMILES
Conditions: in CCOC(C)=O

CN(C)c1ccc(-c2nc3c(c4c2-c2ccc(C#N)cc2CC4)-c2ccc(C#N)cc2CC3)cc1; 489 nm

Reported emission maximum of CC1=CC(C)=[N+]2C1=C(c1ccc(N(C)C)cc1)c1c(C)cc(C)n1[B-]2(F)F : 510 nm

Reported emission maximum of CC1(C)CC(/C=C/c2ccc(-n3cncn3)cc2)=CC(=C(C#N)C#N)C1 : 515 nm

----------
Test: solvent given as SMILES
Settings: in Cc1ccccc1
measuredParameter: emission maximum (nm)
Report the figure in nm without appending any unit label.

CCCCCCCCN1c2ccc(C#Cc3ccc(C(F)(F)F)cc3)cc2Sc2cc(C=O)ccc21; 509
CON(OC)c1cc2c3cc(-c4c(C)cc(C)cc4C)cc4c5cc(-c6c(C)cc(C)cc6C)cc6c7cc(B(c8c(C)cc(C)cc8C)c8c(C)cc(C)cc8C)cc8c9cc(-c%10c(C)cc(C)cc%10C)cc%10c%11cc(-c%12c(C)cc(C)cc%12C)cc%12c(c1)c2c1c(c43)c(c65)c(c78)c(c9%10)c1c%11%12; 510

Here is another compound to look at.
Reported emission maximum of CC1(C)c2ccccc2N(c2c(F)cc(-c3nnc(-c4ccccc4)o3)cc2F)c2ccccc21 : 490

----------
Assay: solvent given as SMILES
Details: in C1CCCCC1
measuredParameter: emission maximum (nm)
Report the figure in nm without appending any unit label.

Example entries begin here.
CC(=O)c1ccc(-c2nc3ccc(N(C)C)c(Br)c3s2)cc1; 424
Cc1cc(O)c(C(C)C)cc1/N=C/c1ccc(C(F)(F)F)cc1; 398

Reported emission maximum of CCCCN1/C(=C\c2c(-c3ccc(N(C)C)cc3)c(=O)c2=O)C=Cc2ccccc21 : 428

Reported emission maximum of CCC1=C(C)C2=Cc3c(I)c(I)cn3[B-](F)(F)[N+]2=C1C : 537

Reported emission maximum of CNc1ccc2c(c1)-c1ccccc1C2=O : 489

Reported emission maximum of COc1ccc(/C=N/c2cc(C(C)C)c(O)cc2C)cc1 : 404

Reported emission maximum of CN(C)c1ccc(/C=C/C(=O)O)cc1 : 399

Reported emission maximum of C#CCNC1=C2C(C)=CC(C)=[N+]2[B-](F)(F)n2c(C)cc(C)c21 : 501.5

----------
Assay: solvent given as SMILES
Details: in ClCCl
Lab note: cut-off is 600 nm. Strictly less in emission maximum is criterion met. Exactly 600 nm or more is criterion not met.

COc1ccc2c(=O)c3c([nH]c2c1)-c1cc(Cl)ccc1NC3(C)C; criterion met
c1ccc2nc3cccc(-c4ccc(-n5c6ccccc6c6ccccc65)cc4)c3cc2c1; criterion met
F[B-]1(F)n2c(Oc3ccccc3)c(Cl)c(Br)c2C(Oc2ccccc2)=C2C(Br)=C(Cl)C(Oc3ccccc3)=[N+]21; criterion met

Hello, is emission maximum of the following compound strictly smaller than 600 nm? CCC[n+]1ccc(/C=C/c2ccc(N(C)C)cc2)cc1
criterion met

Hello, is emission maximum of the following compound strictly smaller than 600 nm? CCOCCOCCOC(=O)/C=C/C1=CC2=C(c3c(C)cc(C)cc3C)c3cccn3[B-](F)(F)[N+]2=C1
criterion met

Hello, is emission maximum of the following compound strictly smaller than 600 nm? COC1(OC)C2(Cl)c3nc4cc(-c5cccs5)ccc4nc3C1(Cl)C1C[C@H]3[C@@H](CC12)C1(Cl)c2nc4ccc(-c5cccs5)cc4nc2C3(Cl)C1(OC)OC (some centres not stated)
criterion met

Hello, is emission maximum of the following compound strictly smaller than 600 nm? Cc1cc(O)c(C(C)C)cc1/N=C/c1ccc(C(F)(F)F)cc1
criterion met

Hello, is emission maximum of the following compound strictly smaller than 600 nm? CC(C)(C)c1ccc2ccc3c(C(C)(C)C)ccc4ccc1c2c43
criterion met

Hello, is emission maximum of the following compound strictly smaller than 600 nm? CCCCN(CCCC)c1ccc2c#cc3cc4c#cc5ccc(C(F)(F)F)cc5c#cc#cc5cc(N(CCCC)CCCC)ccc5c#cc4cc3c#cc3ccc(C(F)(F)F)cc3c#cc#cc2c1
criterion met

Hello, is emission maximum of the following compound strictly smaller than 600 nm? COc1ccc(C#Cc2nc(C#Cc3ccc(OC)cc3)c(C#Cc3ccc(OC)cc3)c(C#Cc3ccc(OC)cc3)c2C#Cc2ccc(OC)cc2)cc1
criterion met

Hello, is emission maximum of the following compound strictly smaller than 600 nm? COc1c2ccccc2c(OC)c2c(C#C[Si](C(C)C)(C(C)C)C(C)C)c3cc4ccccc4cc3c(C#C[Si](C(C)C)(C(C)C)C(C)C)c12
criterion not met

Hello, is emission maximum of the following compound strictly smaller than 600 nm? N#Cc1ccc2c(c1)CCc1nc(-c3ccc([N+](=O)[O-])cc3)c3c(c1-2)CCc1cc(C#N)ccc1-3
criterion met

Hello, is emission maximum of the following compound strictly smaller than 600 nm? CCCc1cc2c(s1)-c1cc3c(cc1NB2c1ccccc1)-c1sc(CCC)cc1B(c1ccccc1)N3
criterion met

Hello, is emission maximum of the following compound strictly smaller than 600 nm? CCCCOc1c(OC)cc2cc(OC)c(OCCCC)c3c4c(OCCCC)c(OC)cc5cc(OC)c(OCCCC)c(c1c23)c54
criterion met

Source listed as the Deep4Chem optical property database.
